Where these numbers come from: ChEMBL document CHEMBL1156274

molecular target: UniProtKB P50281; experiment: Inhibition of human recombinant MMP14 by fluorometric assay
quantity_name: pIC50
Just the number, please; pIC50 means minus log10 of the concentration in mol/L.

Examples with answers:
smiles_structure: COc1ccc(S(=O)(=O)N(CC(C)C)[C@@H](C(=O)NO)C(C)C)cc1
pIC50: 7.80

smiles_structure: COc1ccc(S(=O)(=O)N(OC(C)C)[C@@H](C(=O)NO)C(C)C)cc1
pIC50: 6.62

smiles_structure: O=C(NO)[C@@H](CCN1C(=O)c2ccccc2C1=O)NS(=O)(=O)c1ccc(Br)cc1
pIC50: 9.05

smiles_structure: CC(=O)NCC[C@@H](NS(=O)(=O)c1ccc(-c2ccccc2)cc1)C(=O)NO
pIC50: 7.47

Let's switch to this compound now.
Req: Look up and report measured pIC50 for this entry: CC#CCOc1ccc(S(=O)(=O)N(CC(C)C)[C@H](CCN2C(=O)c3ccccc3C2=O)C(=O)NO)cc1
Resp: 7.54

###

Reported values of pIC50 for individual entries
target: Disintegrin and metalloproteinase domain-containing protein 17 (Homo sapiens, UniProt P78536); assay: Inhibition of ADAM17 in human A2774 cells assessed as inhibition of EGF-induced sALCAM release by ELISA; format: cell-based
Sequence (P78536 whole entry, the tested form may be a part): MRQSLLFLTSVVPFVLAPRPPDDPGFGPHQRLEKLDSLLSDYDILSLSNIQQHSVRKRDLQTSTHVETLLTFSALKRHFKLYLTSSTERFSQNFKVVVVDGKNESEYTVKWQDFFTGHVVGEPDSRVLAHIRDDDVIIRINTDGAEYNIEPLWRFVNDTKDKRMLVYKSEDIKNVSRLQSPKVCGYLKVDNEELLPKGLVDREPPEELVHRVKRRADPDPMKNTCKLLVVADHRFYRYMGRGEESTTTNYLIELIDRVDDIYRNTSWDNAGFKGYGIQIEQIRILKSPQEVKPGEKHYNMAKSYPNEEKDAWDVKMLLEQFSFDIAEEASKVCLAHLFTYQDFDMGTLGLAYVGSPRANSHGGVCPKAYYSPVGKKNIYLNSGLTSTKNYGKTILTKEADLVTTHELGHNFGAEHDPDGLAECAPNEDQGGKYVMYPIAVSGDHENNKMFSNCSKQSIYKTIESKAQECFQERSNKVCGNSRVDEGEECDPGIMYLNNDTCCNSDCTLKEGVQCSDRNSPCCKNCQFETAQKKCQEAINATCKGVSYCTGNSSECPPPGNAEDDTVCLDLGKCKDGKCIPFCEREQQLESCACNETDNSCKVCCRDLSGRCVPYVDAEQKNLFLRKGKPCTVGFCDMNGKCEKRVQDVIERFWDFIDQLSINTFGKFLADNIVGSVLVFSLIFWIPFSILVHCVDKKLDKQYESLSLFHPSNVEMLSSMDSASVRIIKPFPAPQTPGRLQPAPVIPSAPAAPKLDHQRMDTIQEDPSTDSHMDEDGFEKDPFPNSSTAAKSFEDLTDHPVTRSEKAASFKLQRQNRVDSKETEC
Recall that pIC50 is obtained by taking minus log10 of the concentration measured in molar.

# example entries with known answers
compound: COc1ccc(S(=O)(=O)N(Cc2cccnc2)[C@@H](C(=O)NO)C(C)C)cc1.Cl [CGS-27023A]
value_measured: 5.49

compound: CC#CCOc1ccc(S(=O)(=O)N[C@H](CCN2C(=O)c3ccccc3C2=O)C(=O)NO)cc1
value_measured: 6.26

// switching to the query compound
Req: Please look at this compound and report its pIC50: CC#CCOc1ccc(S(=O)(=O)N[C@H](CCNC(=O)OCc2ccccc2)C(=O)NO)cc1
Resp: 6.05

###

biological target: UniProtKB P50281; assay: Inhibition of human recombinant MMP14 by fluorometric assay
pIC50: −log10 of the molar value.
# binarize pIC50: threshold 6 inclusive, high side 1, low side -1

smiles_structure: O=C(CNS(=O)(=O)c1ccc(Br)cc1)NO
assigned_class: 1
--
smiles_structure: CC(=O)NCC[C@@H](NS(=O)(=O)c1ccc(Br)cc1)C(=O)NO
assigned_class: 1

Req: Determine whether measured pIC50 meets or exceeds 6 for O=C(NO)[C@@H](CCN1C(=O)c2ccccc2C1=O)NS(=O)(=O)c1ccc(-c2ccccc2C(F)(F)F)cc1
Resp: -1

Req: Does the molecule COc1ccc(S(=O)(=O)N(CC(=O)NO)OC(C)C)cc1 have recorded pIC50 that is 6 or more?
Resp: -1

Req: Does pIC50 meet or surpass 6 for CC#CCOc1ccc(S(=O)(=O)N[C@H](CCNC(=O)OCc2ccccc2)C(=O)NO)cc1 ?
Resp: 1

###

molecular target: Disintegrin and metalloproteinase domain-containing protein 17 (Homo sapiens, UniProt P78536); conditions: A2774, at 10 µM
Description: Inhibition of ADAM-17-mediated sALCAM release in human A2774 cells at 10 uM by ELISA
quantity_name: inhibition (%)
Express the result in % but write the number alone.

Consider the following illustrative entries.
compound: COc1ccc(S(=O)(=O)N(OC(C)C)[C@@H](C(=O)NO)C(C)C)cc1
unit_annotation: %
inhibition: 0

compound: COc1ccc(S(=O)(=O)N(CC(=O)NO)OC(C)C)cc1
unit_annotation: %
inhibition: 0

compound: COc1ccc(S(=O)(=O)N(CC(C)C)[C@@H](C(=O)NO)C(C)C)cc1
unit_annotation: %
inhibition: 9

compound: CC(C)ON(CC(=O)NO)S(=O)(=O)c1ccc(-c2ccccc2)cc1
unit_annotation: %
inhibition: 0

compound: O=C(CNS(=O)(=O)c1ccc(Br)cc1)NO
unit_annotation: %
inhibition: 13

compound: COc1ccc(S(=O)(=O)N(Cc2cccnc2)[C@@H](C(=O)NO)C(C)C)cc1.Cl [CGS-27023A]
unit_annotation: %
inhibition: 33

compound: COc1ccc(S(=O)(=O)N(CC(=O)NO)CC(C)C)cc1
unit_annotation: %
inhibition: 26

compound: O=C(CNS(=O)(=O)c1ccc(-c2ccccc2)cc1)NO
unit_annotation: %
inhibition: 35

compound: CC(C)CN(CC(=O)NO)S(=O)(=O)c1ccc(-c2ccccc2)cc1
unit_annotation: %
inhibition: 14

// next item, inhibition requested
Req: Provide only the value of recorded inhibition for COc1ccc(S(=O)(=O)NCC(=O)NO)cc1
Resp: 32
